Origin of the recorded values: the supplement of paper PMC6555819

- System: PPARa:RXRa (NR concentration 270 nM, RXRa partner concentration 90 nM)
- Protocol Details: PBM binding z-score (relative to random genomic background probes); higher = stronger binding; sequences stand for … in GC…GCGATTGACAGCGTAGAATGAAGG
Recorded PBM binding z-score, one value per entry.

Consider the following illustrative entries.
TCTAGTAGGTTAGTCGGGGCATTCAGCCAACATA    1.9
TGGAGTAGGTTACCAATGGGGCATTCAGCTTTCT    1.61
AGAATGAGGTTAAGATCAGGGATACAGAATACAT    3.7
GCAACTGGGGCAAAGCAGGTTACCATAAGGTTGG    2.06

GET /values?readout=PBM binding z-score&item= `GCTGCTATGTCAACTGATGGTCAGCTAAAGCTCG`
-0.283

Try this sequence next: `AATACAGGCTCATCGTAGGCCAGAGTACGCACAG`
-0.569

====

- Test system: PPARg:RXRa (NR concentration 180 nM, RXRa partner concentration 90 nM)
- Protocol Details: PBM binding z-score (relative to random genomic background probes); higher = stronger binding; sequences stand for … in GC…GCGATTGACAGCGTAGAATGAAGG
Tick True if PBM binding z-score is 1 or greater. Tick False if PBM binding z-score is less than 1.

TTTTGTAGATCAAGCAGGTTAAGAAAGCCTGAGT    False
GCGATTAGTTGAAAGGGCAACCGAATGATTCTCG    True
GGAACGAGGCCAAGTTGATAGCAGAGTTTGATGG    False

Confirm if PBM binding z-score reported for the sequence `TCTATTAGTTGAAGGGCGACCGACGAGTCCGTTT` is 1 or above.
False

====

- System: VDR homodimer (NR concentration 270 nM)
- Protocol Details: PBM binding z-score (relative to random genomic background probes); higher = stronger binding; sequences stand for … in GC…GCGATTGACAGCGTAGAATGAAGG
Category key, based on recorded PBM binding z-score: 0: < 0.8; 1: ≥ 0.8 and < 2; 2: ≥ 2

Record excerpt, results attached:
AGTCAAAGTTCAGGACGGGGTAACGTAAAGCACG    2
CCTGCTGGGCCACGAAAGGTCATTGATTCAGTGA    2

Hi, small favor: classify `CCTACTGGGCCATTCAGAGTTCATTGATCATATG` by its PBM binding z-score when you get a moment.
2

Here is the next sequence: `AGTCAAAGTTCAGGACGAGGTAACGTATAGCACG`
2

====

- System: PPARg:RXRa 30nM:10nM, anti-RXR (NR concentration 30 nM, RXRa partner concentration 10 nM)
- Protocol Details: PBM binding z-score (relative to random genomic background probes); higher = stronger binding; sequences stand for … in GC…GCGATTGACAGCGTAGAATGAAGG
Recorded PBM binding z-score values for a group of sequences are listed next.
Reply briefly: the number, and no unit.

A selection of reference data follows.
CCTAATGGGCCATCAGGTCATTGATATCAACGTT    0.609
GGAACGAGGGCAAAGTTGGTAGCATCTGTCGACG    4.45
CCTACTGGGCCAAAAAGGTCATTCATGCCGATAA    1.87
CCTACTGGGCCAAGGTCACTGATCAGTCAAAGCA    2.22
TCTGCTAGGTCAATTGGTCAGCTAACGAGCTGCC    1.64

# lookup: PBM binding z-score of `TAGCCTAGGTCATGCGGGCCCGTATAGTGTCGGC`
0.0314

Quick one: `ACTAGCAGGCCAAGTTTGGGACACTCAAACAAAG`
-0.775

Cool, now `AGCGAAAGGTCGACGAGGTGAGTATACACCGTTT`
0.842

// repeat for `CGTCCCAGGTCAGCAGGTCAGTGAAAGCGACGTG` and report
0.0912

Would you kindly repeat that for `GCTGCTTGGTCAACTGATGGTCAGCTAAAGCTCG` ?
-1.15

For `CAAACTAGGTCAAAAGTCAAAGTCGAGCCAACCA` then?
9.77

Try `TCTAGTTGGTGAAAGGTCACACACTCGAAATGCG` next.
9.91

What do you get for `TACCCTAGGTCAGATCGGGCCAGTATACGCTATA` ?
0.45

Subsequent entry: `ATATGTAGTTTAGCTGGGGTCATTCAGACTAGGC`
0.899

Please answer likewise for `TAGCCTAGGTCAGATCTGGCCAGTATACGCTATA`
-0.145

Could you do the same for `ATCGCAAGGTCGAGGTGAGTATAGAGAAAGGGAA` , please?
0.1

Next: `ACAGACAGGTGATGAAGGTATCTCAGGCTATCAT`
-0.034

Please give the result for `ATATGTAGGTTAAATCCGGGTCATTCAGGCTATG` too.
2.91

Also need `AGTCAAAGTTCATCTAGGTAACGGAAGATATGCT` , thanks.
3.55

Also `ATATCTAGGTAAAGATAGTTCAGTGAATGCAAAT` ?
1

Try `CCTTACGGGTTAAGGTTATAGCACGGGTGGTACG` next.
0.309

Check `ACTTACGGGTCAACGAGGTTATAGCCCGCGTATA` too.
2.01

Follow-up item: `AGAATGAGGTTAAGATCAGGGGAACAGAATACAT`
0.75

Now the same for `CGAACTAGGTCTAGGACAGTGAATCTCCGCACGC`
-0.539

Also, `ACTAGCAGTCCAAGTTTGGGTCACTCAAACAAAG` please.
-0.155

Likewise for `TCATAAAGGTAATACAGGTGAAAGTCGGCATCTA` ?
4.29

====

PBM binding z-score: recorded values
- System: RARa homodimer (NR concentration 270 nM)
- Protocol Details: PBM binding z-score (relative to random genomic background probes); higher = stronger binding; sequences stand for … in GC…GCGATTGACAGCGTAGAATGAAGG
Lab note: record just the number, no unit beside it.

Study these solved cases before continuing.
ACTAGCGGGCCAAGGGTCACTCAAGATTAGTCCG    0.108
CCTACTGGGCCAAAGATCATTGATTCCAATGCTC    -0.399
CCTATTTGGTCAGGAGGTCACACACCGGATATGA    2.56
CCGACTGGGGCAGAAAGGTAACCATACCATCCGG    -0.0732
GCTAGCAGGCCATTGGGGTCACTCAATGACGGGC    -0.69
CCTCGGAGGACAACGGGAGGTCAGAGCTGCCAGA    0.367
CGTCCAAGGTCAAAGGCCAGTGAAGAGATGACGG    0.426
TATAGAGGGTCAAAGGCCAGAGTACGAATGTCGA    1.12
TCATATAGGTAAACAGGTGAAATTCCGTAAGTTA    2.19
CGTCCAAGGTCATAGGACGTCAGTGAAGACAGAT    1.29

Find the recorded PBM binding z-score belonging to `GCGACTGGGGCAAGGCAGGTTACCATAAGGTTGG` and report it.
-0.915

Same thing, different sequence: `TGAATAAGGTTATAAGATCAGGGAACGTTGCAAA`
0.729

Now consider `TCATATAGGTAAATGCTAGGTGAAAATCCGATCT` and answer again.
1.61

Would you mind doing `GGAACGGGGGCAAAGTTGATAGCATCTGTCGACG` as well?
0.888

Try the sequence `GCTTACGGTTCAAAGGTTATAGCATGAATAGAAT`
0.458

====

- Test system: PPARg:RXRa 270nM:90nM, anti-RXR (NR concentration 270 nM, RXRa partner concentration 90 nM)
- Protocol Details: PBM binding z-score (relative to random genomic background probes); higher = stronger binding; sequences stand for … in GC…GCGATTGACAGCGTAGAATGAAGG
# PBM binding z-score per record follows
Note: the reply should be a number with no unit written.

CATAGTTGGTCAGGAGGTCACACACCGGATATGA    3.65
CGTACTGGGCCATCAGGTCATTGATATCAACGTT    3.82
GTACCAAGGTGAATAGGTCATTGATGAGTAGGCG    3.52
GATCGGAGGACAAGGTCAGAGCTTTGTCCGTAGA    2
CGTCCAAGGTAAAGGTCAGTGAAAGAGACTCGAA    6.05

Entry `CCTCGGAGGATAGAAGGTCAGAGCTGTCCGCTTT` : reported PBM binding z-score = ?
1.26

====

Reported PBM binding z-score is given for each of the following sequences.
- Test system: LXRa:RXRa (NR concentration 270 nM, RXRa partner concentration 90 nM)
- Protocol Details: PBM binding z-score (relative to random genomic background probes); higher = stronger binding; sequences stand for … in GC…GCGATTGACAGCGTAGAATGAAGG
Reply with the value as a number alone.

Entry `CATACAGGGTCAGCTAGGTCAGAGTAGGGACGGC` : reported PBM binding z-score = ?
3.88
